- Study Target: T1, ZIKV (prM80E) with a C-terminal myc-myc-hexahistidine tag (Zika virus, UniProt A0A024B7W1 104-694)
- T1 construct: also called ZIKV (prM80E)-mmH; ZIKV-mmH
- Protocol Details: SPR, mAb captured, 37C, pH 6.0 chase
Record form. Attribute: t½. Fill in for each entry.
Give bare numbers, in s.

Some binders with known t½ results, for comparison:
| Binder | Uom | t½ |
| --- | --- | --- |
| H4H25602P (antibody, V domains shown) VH: EVQLVESGGGLVQPGGSLRLSCAASGFTVSSNYMSWVRQAPGSGLEWVSVIYSGGITHYVDSVKGRFTISRHNSKNTLYLQMNSLRAEDTAMYYCARERYSGITGNPYGFDIWGQGTMVTVSS VL: DIQLTQSPSFLSASVGDRVTITCWASQDISSYLAWYQQKPGIAPKLLIYAASTLQSGVPSRFSGSGSGTEFTLTISSLQPEDFATYYCQQLNIYPFTFGPGTKVDIK | s | 57 |
| H4H25710N (antibody, V domains shown) VH: EVQLLESGGGLVQPGGSLRLSCAASGFTVSNNYMSWVRQAPGKGLEWVSVIYSGGRTNYGDSVKGRFTISRDNSKNTLYLQMNSLRAEDTAVYYCARENYDFWSGDPYGWDVWGQGTTVTVSS VL: DIQMTQSPSSLSASVGDRVTITCRASQDISNYLAWFQQKPGKAPKSLIYGASSLQRGVPSKFRGSGSGTDFTLTISSLQPEDFASYYCQQYNSYPYTFGQGTKLEIK | s | 5.4 |

Alright, here's another binder for you.
Report t½ for H4H25619P (antibody, V domains shown) VH: QVQLVESGGGVVQPGRSLRLSCTASGFTFSTYGMHWVRHVPGKGLEWVAIVWYDGSDKSYAASVKGRFTISRDNSKNTLFLQMNSLRAEDTAVYYCARQGTYYYYGMDVWGQGTTVTVSS VL: DIQMTQSPSSLSASVGDRVTITCRSSQTITNYLNWYQQRPGKAPKLLIYAASSLQSGVPSRFSGSGSGTDFTLTISSLQPEDFATYYCQQSYSTPPITFGQGTKLEIKR
677
